Test: NCI Yeast Anticancer Drug Screen. Data for the wt1 strain (AID 149)
Conditions: S. cerevisiae wt1 strain (SPY 50644) growth inhibition; at 11.0 µM; hits give high values
About 79,000 compounds went through this panel and 15% of them were active in at least one assay; those are over-represented in the sample as a whole.
# label = fulfilled if growth inhibition >= 10% else not fulfilled

| COMPOUND | GROUP LABEL |
| --- | --- |
| CCC(c1ccc(O)cc1)C(CC)c1ccc(OCCN)cc1 (stereo not given) | not fulfilled |
| CCN(CC)N=Nc1c(C(N)=O)n[nH]c1C | not fulfilled |
| Nc1nc(N)c2c(n1)CCC(S(=O)(=O)c1ccc3ccccc3c1)C2 (stereo not given) | fulfilled |
| C/C(=N\NC(=S)NC1CCCC1)c1ccccn1 | fulfilled |
| CCN1/C(=C/c2ccc3ccccc3[n+]2CC)C=Cc2ccccc21 | fulfilled |
| O=C(CCc1ccccc1)ON1C(=S)C(c2ccccc2)(c2ccccc2)N=C1Sc1ccccc1 | fulfilled |

Hi, just wondering whether `O=S(=O)(N/N=C/c1cccc(Cl)c1)c1ccccc1` shows growth inhibition of 10% or higher.
not fulfilled

Hi, just wondering whether `Cc1cccc(/C=N/NC(=S)N(C)CCc2ccccn2)n1` shows growth inhibition of 10% or higher.
fulfilled

Hi, just wondering whether `Cc1cc(Cl)ccc1NC(=O)/C(Cl)=C1/Sc2ccccc2NC1=O` shows growth inhibition of 10% or higher.
not fulfilled

Hi, just wondering whether `NCc1c(O)ccc2ccccc12` shows growth inhibition of 10% or higher.
fulfilled

Hi, just wondering whether `O=C(/C=N/O)Nc1cc(Cl)c(Cl)cc1Cl` shows growth inhibition of 10% or higher.
not fulfilled

Hi, just wondering whether `CCCCOC(=O)CSSCC(=O)OCCCC` shows growth inhibition of 10% or higher.
fulfilled

Hi, just wondering whether `S=c1[nH]c2c(Cl)c(Cl)c(Cl)c(Cl)c2[nH]1` shows growth inhibition of 10% or higher.
fulfilled

Hi, just wondering whether `CCOC(=O)c1csc(Br)n1` shows growth inhibition of 10% or higher.
not fulfilled

Hi, just wondering whether `CC(=O)CC(=O)/C=C/c1cccs1` shows growth inhibition of 10% or higher.
not fulfilled

Hi, just wondering whether `Cc1ccc2occ/c(=N\Nc3ccccc3)c2c1` shows growth inhibition of 10% or higher.
not fulfilled

Data origin: PubChem BioAssay (NCI)
